# Test system: HUH7 cells
# Experiment Summary: Proliferation inhibitory effect for HUH7 cells (SRB assay)
# Format: cell-based
# Condition Context: Homo sapiens, Huh-7, 72 hours, GI50, read-out: IC50 HUH7 Cell Line
# Protocol: Test Example 2: Measuring Inhibitory Effect of FGFR Inhibitor Using Cell Line The test was carried out for identifying a proliferation inhibitory effect of the compound of the present invention for HUH7 cells. HUH7 cell lines were counted and 5.0×10^3 cells were inoculated per well in a 96 well plate. […] Using a microplate reader, optical density (O.D. value) was measured at 540 nm. A GI50 value of each of the compounds was calculated using GraphPad Prism V6.0 Software.
pIC50: −log10 of the molar value.
Observed Property: pIC50

molecule="C=CC(=O)Nc1ccc(N2CCN(CC)CC2)cc1Nc1ncc2cc(-c3c(Cl)c(OC)cc(OC)c3Cl)c3nccn3c2n1 [compound 13]" test_result="> 7.30"
molecule="C=CC(=O)Nc1cc(Cl)ccc1Nc1ncc2cc(-c3c(Cl)c(OC)cc(OC)c3Cl)c3nccn3c2n1 [compound 15]" test_result="6.30 to 7.30"
molecule="C=CC(=O)Nc1cc(F)cc(F)c1Nc1ncc2cc(-c3c(F)c(OC)cc(OC)c3F)c3nccn3c2n1 [compound 76]" test_result="6.30 to 7.30"
molecule="C=CC(=O)N[C@H]1CCOC[C@H]1Nc1ncc2cc(-c3c(Cl)c(OC)cc(OC)c3Cl)c3nccn3c2n1 [Synthesis Example 4]" test_result="6.30 to 7.30"

###

# System: HUH7 cells
# Experiment Summary: Proliferation inhibitory effect for HUH7 cells (SRB assay)
# Assay type: cell-based
# Condition Context: Homo sapiens, Huh-7, 72 hours, GI50, read-out: IC50 HUH7 Cell Line
Observed Property: IC50

molecule="C=CC(=O)Nc1cc(N2CCS(=O)(=O)CC2)ccc1Nc1ncc2cc(-c3c(Cl)c(OC)cc(OC)c3Cl)c3nccn3c2n1 [compound 36]" observed_property=IC50 test_result="< 50 nM"
molecule="C=CC(=O)Nc1cccc(Cl)c1Nc1ncc2cc(-c3c(F)c(OC)cc(OC)c3F)c3nccn3c2n1 [compound 79]" observed_property=IC50 test_result="50 to 500 nM"
molecule="C=CC(=O)Nc1cccc(F)c1Nc1ncc2cc(-c3c(F)c(OC)cc(OC)c3F)c3nccn3c2n1 [Synthesis Example 72]" observed_property=IC50 test_result="< 50 nM"
molecule="C=CC(=O)Nc1cc(N2CCOCC2)cc(OC)c1Nc1ncc2cc(-c3c(Cl)c(OC)cc(OC)c3Cl)c3nccn3c2n1 [compound 65]" observed_property=IC50 test_result="50 to 500 nM"
molecule="C=CC(=O)Nc1cn(C)nc1Nc1cc2c(cn1)cc(-c1c(Cl)c(OC)cc(OC)c1Cl)c1nccn12 [compound 87]" observed_property=IC50 test_result="< 50 nM"
molecule="C=CC(=O)Nc1cc(N2CCOCC2)cc(F)c1Nc1ncc2cc(-c3c(Cl)c(OC)cc(OC)c3Cl)c3nccn3c2n1 [compound 67]" observed_property=IC50 test_result="50 to 500 nM"
molecule="C=CC(=O)Nc1cc(N2CC[C@H](N(C)C)C2)ccc1Nc1ncc2cc(-c3c(Cl)c(OC)cc(OC)c3Cl)c3nccn3c2n1 [compound 48]" observed_property=IC50 test_result="< 50 nM"

###

# Test system: HUH7 cells
# Experiment Summary: Proliferation inhibitory effect for HUH7 cells (SRB assay)
# Assay type: cell-based
# Condition Context: Homo sapiens, Huh-7, 72 hours, GI50, read-out: IC50 HUH7 Cell Line
Entries and their IC50 values follow.
Observed Property: IC50

molecule="C=CC(=O)Nc1cc(N(C)C)ccc1Nc1ncc2cc(-c3c(Cl)c(OC)cc(OC)c3Cl)c3nccn3c2n1 [compound 24]" test_result="< 50 nM"
molecule="C=CC(=O)Nc1cc(N2C[C@@H](C)O[C@@H](C)C2)ccc1Nc1ncc2cc(-c3c(Cl)c(OC)cc(OC)c3Cl)c3nccn3c2n1 [compound 38]" test_result="< 50 nM"
molecule="C=CC(=O)Nc1ccccc1Nc1ncc2cc(-c3c(F)c(OC)cc(OC)c3F)c3nccn3c2n1 [compound 75]" test_result="< 50 nM"
molecule="C=CC(=O)Nc1cccc(C)c1Nc1ncc2cc(-c3c(Cl)c(OC)cc(OC)c3Cl)c3nccn3c2n1 [compound 9]" test_result="50 to 500 nM"
molecule="C=CC(=O)Nc1cc(F)cc(C)c1Nc1ncc2cc(-c3c(Cl)c(OC)cc(OC)c3Cl)c3nccn3c2n1 [compound 64]" test_result="> 500 nM"
molecule="C=CC(=O)NC1CCCC1Nc1ncc2cc(-c3c(Cl)c(OC)cc(OC)c3Cl)c3nccn3c2n1 (stereo not shown) [Synthesis Example 1]" test_result="50 to 500 nM"
molecule="C=CC(=O)Nc1cc(OC(C)C)ccc1Nc1ncc2cc(-c3c(Cl)c(OC)cc(OC)c3Cl)c3nccn3c2n1 [compound 28]" test_result="< 50 nM"
molecule="C=CC(=O)Nc1cc(OC)ccc1Nc1ncc2cc(-c3c(Cl)c(OC)cc(OC)c3Cl)c3nccn3c2n1 [compound 26]" test_result="< 50 nM"
molecule="C=CC(=O)Nc1cccnc1Nc1ncc2cc(-c3c(Cl)c(OC)cc(OC)c3Cl)c3nccn3c2n1 [compound 69]" test_result="50 to 500 nM"
molecule="C=CC(=O)Nc1cc(C2CCN(C)CC2)ccc1Nc1ncc2cc(-c3c(Cl)c(OC)cc(OC)c3Cl)c3nccn3c2n1 [compound 23]" test_result="< 50 nM"
molecule="C=CC(=O)Nc1cccc(C)c1Nc1ncc2cc(-c3cc(OC)cc(OC)c3)c3nccn3c2n1 [compound 8]" test_result="> 500 nM"
molecule="C=CC(=O)Nc1cc(OCCOC)ccc1Nc1ncc2cc(-c3c(Cl)c(OC)cc(OC)c3Cl)c3nccn3c2n1 [compound 29]" test_result="< 50 nM"
molecule="C=CC(=O)Nc1cc(N2CCN(C)CC2)ccc1Nc1ncc2cc(-c3c(Cl)c(OC)cc(OC)c3Cl)c3nccn3c2n1 [compound 52]" test_result="< 50 nM"
molecule="C=CC(=O)Nc1cccc(OC)c1Nc1ncc2cc(-c3c(Cl)c(OC)cc(OC)c3Cl)c3nccn3c2n1 [compound 11]" test_result="50 to 500 nM"
molecule="C=CC(=O)Nc1cc(N2CCN(S(C)(=O)=O)CC2)ccc1Nc1ncc2cc(-c3c(Cl)c(OC)cc(OC)c3Cl)c3nccn3c2n1 [compound 35]" test_result="< 50 nM"
molecule="COc1cc(OC)c(Cl)c(-c2cc3cnc(Nc4ccc(N5CCOCC5)cc4NC(=O)/C=C\\Cl)nc3n3ccnc23)c1Cl [compound 47]" test_result="< 50 nM"
molecule="C=CC(=O)Nc1cc(OC2CCCC2)ccc1Nc1ncc2cc(-c3c(Cl)c(OC)cc(OC)c3Cl)c3nccn3c2n1 [compound 54]" test_result="50 to 500 nM"
molecule="C=CC(=O)NC1CCCCC1Nc1ncc2cc(-c3c(Cl)c(OC)cc(OC)c3Cl)c3nccn3c2n1 (stereo not shown) [compound 2]" test_result="50 to 500 nM"
molecule="C=CC(=O)Nc1cccc(Nc2ncc3cc(-c4c(F)c(OC)cc(OC)c4F)c4nccn4c3n2)c1 [compound 74]" test_result="< 50 nM"
molecule="C=CC(=O)Nc1cc(OC2CCN(CC(F)(F)F)CC2)ccc1Nc1ncc2cc(-c3c(Cl)c(OC)cc(OC)c3Cl)c3nccn3c2n1 [compound 55]" test_result="50 to 500 nM"
molecule="C=CC(=O)Nc1cc(N2C[C@@H](C)O[C@@H](C)C2)ccc1Nc1cc2c(cn1)cc(-c1c(Cl)c(OC)cc(OC)c1Cl)c1nccn12 [compound 84]" test_result="< 50 nM"
molecule="C=CC(=O)N[C@H]1CCOC[C@H]1Nc1ncc2cc(-c3c(F)c(OC)cc(OC)c3F)c3nccn3c2n1 [compound 5]" test_result="50 to 500 nM"
molecule="COc1cc(OC)c(Cl)c(-c2cc3cnc(-c4cccc(N5CCOCC5)c4)nc3n3ccnc23)c1Cl [Synthesis Example 80]" test_result="> 500 nM"
molecule="C=CC(=O)Nc1cc(N2CCC[C@H]2COC)ccc1Nc1ncc2cc(-c3c(Cl)c(OC)cc(OC)c3Cl)c3nccn3c2n1 [compound 50]" test_result="< 50 nM"
molecule="C=CC(=O)Nc1cc(N2CCOCC2)cc(Cl)c1Nc1ncc2cc(-c3c(Cl)c(OC)cc(OC)c3Cl)c3nccn3c2n1 [compound 68]" test_result="> 500 nM"
molecule="C=CC(=O)Nc1cc(N2CCN(CCOC)CC2)ccc1Nc1ncc2cc(-c3c(Cl)c(OC)cc(OC)c3Cl)c3nccn3c2n1 [compound 46]" test_result="< 50 nM"
molecule="C=CC(=O)Nc1cc(C)ccc1Nc1ncc2cc(-c3c(Cl)c(OC)cc(OC)c3Cl)c3nccn3c2n1 [compound 19]" test_result="< 50 nM"
molecule="C=CC(=O)Nc1cc(N2CCOCC2)cc(C)c1Nc1ncc2cc(-c3c(Cl)c(OC)cc(OC)c3Cl)c3nccn3c2n1 [compound 63]" test_result="50 to 500 nM"
